Experiment: soluble on expression in E. coli; label from the status in PepcDB or PDB records
Recorded endpoint: soluble on expression in E. coli

- Input sequence: "MAPKAEKKPSEKAPKADKKITKEGGSERKKKTKKSTETYKIYLFKVLKQVHPDIGISGKAMGIMNSFINDTFEKIALESSRLARYNKKPTITSREIQTAVRLVLPGELAKHAVSEGTKAVTKFTSS"
  Recorded endpoint: "soluble on expression in E. coli"
  Reported value: "not soluble"
- Input sequence: "MQLASRFGHVNQIRRDRPLTREELMQVVPSVFGEDKHTSRSENYTWIPTITVLESLQREGFQPFFACQTRVRDPGRRGYTKHMLRLRRDGEINGQHVPEIILLNSHDGTSSYQMLPGYFRFVCQNGCVCGQSLGEVRVPHRGNVVEKVIEGAYEVVGVFDRIEEKRDAMQSLVLPPLARQALAQAALTYRYGDEHQPVTTADILTPRRREDYGKDLWSAYQTIQENMLKGGISGRSAKGKRIHTRAIHSIDTDIKLNRALWVMTETLLENMR"
  Recorded endpoint: "soluble on expression in E. coli"
  Reported value: "not soluble"
- Input sequence: "MNLDAPRVLVLNAAYEVLGLASIKRAVLLVLGGGAEMVSESGLYLNTPSTRIPVPSVVRLKRMVRRRPGRVPLNRRNVLRRDRYTCQYCGQKGGELTVDHVLPKSRGGKSTWDNLVAACRSCNLRKGDRTPEEAGMRLLRPPKPPRVPLFLLDLKEVPPDWRPFVEGLLGLEHHHHHH"
  Recorded endpoint: "soluble on expression in E. coli"
  Reported value: "not soluble"
- Input sequence: "MNFGAYGKITDVEFVSDSEGPLHFCIITFADSRSVDVLLTKSIYIRDVLMFTRRAVLKESVKIAEHKIKEQEQQNLVQLPPNHTAYLTPSRPVTSVHASSSASSNHYDPSAAAGYAPLYHQPPESDPLSQCGYGPRKW"
  Recorded endpoint: "soluble on expression in E. coli"
  Reported value: "not soluble"
- Input sequence: "MVKDKQKAIFSENLNSYIAKSEKTQLEIAKSIGVSPQTFNTWCKGIAIPRMGKVQALADYFNINKSDLIEDKKLNIDTVPIESGYTIPVLGRVAAGYGKEAVEEVIGQIEISPSMAAKGDYFGLLIKGDSMIPTLYDGDTVIVERTDDAESGDLVIALVNGSDATCKRLQKYAEGIALIPQNPVYEPMRFTESEIDTTPVKILGKVVEMRRKFLEHHHHHH"
  Recorded endpoint: "soluble on expression in E. coli"
  Reported value: "soluble"

**Q:** Which soluble on expression in E. coli value belongs to GSDSAITLWQFLLQLLQKPQNKHMICWTSNDGQFKLLQAEEVARLWGIRKNKPNMNYDKLSRALRYYYVKNIIKKVNGQKFVYKFVSYPEILNMDPMTVGRIEGDCESLNFSEVSSSSKDVENGGKDKPPQPGAKTSSRNDYIHSGLYSSFTLNSLN ?
**A:** soluble

**Q:** Can you share its soluble on expression in E. coli? I mean this sequence: MSLKIRLPEMIDYFRKENGWTMKEFGEKLGKSESAISKWIKGVRSPMVEDFDKMVNLFNTDPDTLMYGASDLSTTLSEINKISSQLEEPRQKVVLNTATNQLDEQNQEKKKESKVIPINKIPDDLPPYISRKILENFVMPTNTMEYEPDEDMVDVPILGRIAAGLPLDAVENFDGTRPVPAHFLSSARDYYWLMVDGHSMEPKIPFGSYVLIEAVPDVTDGTIGAVLFQDDCQATLKKVYHEIDCLRLVSINKEFKDQFATQDNPAAVIGQAVKVEIDLEGHHHHHH
**A:** soluble

**Q:** soluble on expression in E. coli for MSAIDCIITAAGLSSRMGQWKMMLPWEQGTILDTSIKNALQFCSRIILVTGYRGNELHERYANQSNITIIHNPDYAQGLLTSVKAAVPAVQTEHCFLTHGDMPTLTIDIFRKIWSLRNDGAILPLHNGIPGHPILVSKPCLMQAIQRPNVTNMRQALLMGDHYSVEIENAEIILDIDTPDDFITAKERYTEILEHHHHHH ?
**A:** soluble

**Q:** Form field: reported soluble on expression in E. coli of MGSDKIHHHHHHMDLPDSASRVFCGRILSMVNTDDVNAIILAQKNMLDRFEKTNEMLLNFNNLSSARLQQMSERFLHHTRTLVEMKRDLDSIFRRIRTLKGKLARQHPEAFSHIPEASFLEEEDEDPIPPSTTTTIATSEQSTGSCDTSPDTVSPSLSPGFEDLSHVQAGSPAINGRSQTDDEEMTGE
**A:** not soluble

**Q:** // returns reported soluble on expression in E. coli for input MGSDKIHHHHHHMGSYPDGKRIFVKMNTSPILPGLAREQIAPQLLWSRRLADGRDMCAQEWLTGKILTPYDMNRKQIVNILTRLHRSRPLMTQLSRLGYAMETPVDLLQSWQETAPDALRKNHFISEVMADLRQTIPGFREDHATIVHGDVRHSNWIETDSGLIYLVDWDSVRLTDRMFDVAHMLCHYISEHQWKEWLTYYGYKYNQTVLSKLYWYGQLSYLSQISKYYMNQDLENVNREIHGLRHFRDKYGKRR
**A:** not soluble

**Q:** Which soluble on expression in E. coli value is on record for MGKEMASEYELGQVRLGEFQLYTNGEELYRKLFEDINDAEKYIYIHFYIVGKDEISQEFLQLLEKKASSGVEVKLSVDRIGGYKLKKKVISRLKENGVKFTFSKKPKLKNVFYSLHQRNHRRIVTIDGKVSYVGGFNIGKEYLGQNPKFGPWRDYHVRIHGEGAADMERKFAEDWKEDTGEKMPIHESIPTLGNVKYQYLFSNGKGLWEKYGALLKKAKKSLIIATPYFVPSKEMVKELKAALNRGVNVKILVPFKSDAILLKQAAYPYLKDMLHAGAEIYQYRNGFFHGKVTIIDGEIVDIGTANFDNRSFYLNCESNCIIYDKTVVDEVWSRLQVDFHKSKRFSEEDFEKISRWDWFLARIANVLASYL ?
**A:** not soluble

**Q:** Need soluble on expression in E. coli, item MEKIGETMAKLGQNTRVNSDQLIQTILADPEVASFISQHHLSQEQINLSLSKFNQFLVERQKYQLKDPSYIAKGYQPILAMNEGYADVSYLETKELVEAQKQAAISERIQLVSLPKSYRHIHLSDIDVNNASRMEAFSAILDFVEQYPSAEQKGLYLYGDMGIGKSYLLAAMAHELSEKKGVSTTLLHFPSFAIDVKNAISNGSVKEEIDAVKNVPVLILDDIGAEQATSWVRDEVLQVILQYRMLEELPTFFTSNYSFADLERKWATIKGSDETWQAKRVMERVRYLAREFHLEGANRRLEHHHHHH
**A:** soluble

* * *

Experiment: soluble on expression in E. coli; label from the status in PepcDB or PDB records

- Input sequence: "MPLDVALKRKYYEEVRPELIRRFGYQNVWEVPRLEKVVINQGLGEAKEDARILEKAAQELALITGQKPAVTRAKKSISNFKLRKGMPIGLRVTLRRDRMWIFLEKLLNVALPRIRDFRGLNPNSFDGRGNYNLGLREQLIFPEITYDMVDALRGMDIAVVTTAETDEEARALLELLGFPFRK"
  soluble on expression in E. coli: "soluble"
- Input sequence: "MKCLVTGGNVKVLGKAVHSLSRIGDELYLEPLEDGLSLRTVNSSRSAYACFLFAPLFFQQYQAATPGQDLLRCKILMKSFLSVFRSLAMLEKTVEKCCISLNGRSSRLVVQLHCKFGVRKTHNLSFQDCESLQAVFDPASCPHMLRAPARVLGEAVLPFSPALAEVTLGIGRGRRVILRSYHEEEADSTAKAMVTEMCLGEEDFQQLQAQEGVAITFCLKEFRGLLSFAESANLNLSIHFDAPGRPAIFTIKDSLLDGHFVLATLS"
  soluble on expression in E. coli: "soluble"

* * *

Experiment: soluble on expression in E. coli; label from the status in PepcDB or PDB records
Recorded endpoint: soluble on expression in E. coli

- Input sequence: "MGSDKIHHHHHHMKYSLGPVLYYWPKETLEDFYQQAANCSADTIYLGEAVCSKRRATKVGDWIEMAKTLAASGKQIVLSTLALVQASSELGELKRYVDNGEFLIEASDLGVVNLCAERKLPFVAGHALNCYNAVTLRLLRKQGMVRWCMPVELSRDWLANLLTQCEELGIRNQFEVEVLSYGHLPLAYSARCFTARSEDRPKDECETCCIKYPTGRSMLSQENQQVFVLNGIQTMSGYVYNLGNELTSMHGLVDMVRLSPMGNETFAMLEAFRANENGAAPLDLTSNSDCNGYWKRLPGLVLHA"
  soluble on expression in E. coli: "not soluble"
- Input sequence: "MEQLQVGQVTLTWLNGGVTHLDGGAMFGVVPKPLWSKKYPPNDQNQIELRTDPILVEAGGKRLLIESGIGNGKLTDKQKRNFGVTEESSLDESLAALGLTRGDIDIVIMTHLHFDHACGLTVWEDGRLVPAFPRAAIITSDVEWEEMRAPNIRSRNTYWKENWEPIAEQVIPFTKETEVVSGIRLIHTGGHSAGHAIVLIESDGEMAIHLGDLLGTHAHQNVLWVMAYDDYPMDSIFAKQRWLPYGIERNAWFTFYHDAYYRAVKWREDGTIAEQVKRNRPTLLEHHHHHH"
  soluble on expression in E. coli: "soluble"
- Input sequence: "MWVDGMAKVVEVGRICVKTRGREAGRKCVIVDIIDENFVLVTGPKSLTGVRRRRVNIDHIEILDKKVDIQKGASDEEVLKALEEAGLADFMREPVRIARITPFTLLEHHHHHH"
  soluble on expression in E. coli: "not soluble"
- Input sequence: "AMGSVTVHSSEPEVRIPENNPVKLSCAYSGFSSPRVEWKFDQGDTTRLVCYNNKITASYEDRVTFLPTGITFKSVTREDTGTYTCMVSEEGGNSYGEVKVKLIVLVPPSKPTVNIPSSATIGNRAVLTCSEQDGSPPSEYTWFKDGIVMPTNPKSTRAFSNSSYVLNPTTGELVFDPLSASDTGEYSCEARNGYGTPMTSNAVRMEAVE"
  soluble on expression in E. coli: "soluble"

**Q:** Need soluble on expression in E. coli of MWAVIRMRTFRRSTRNAVSRMRKPKPRASAKQRSLERHFGSRQPTKNKFLNAIYWGIRRCQYFLCCYDDEVEDELEDASANPFNTQPPGLDQLVQLTGFNRKWIMFMYRNFKQKCSNGRMTDSQWRILFRSIFPQANDSAFIDRLYAAIVKKKQHPQITFEDLILCLWELSEDGKTSEMGNYHINSSARAQFAFQLMDEEGKGRVDEPGFYKYTRCVFALTAVNKPCTDQIIDASTIGLPASSIYRSTSVDDVLKPMSPLIARFSSKRFKELDTDRDGFITVRDIERELEIQKNEAICLKSLKDFSFEDLKNEEDDDDEDDQDTNPLLSESSSFKKDV , thanks.
**A:** not soluble

**Q:** Consider the sequence MGSQAAHMMSMDFEDFPVESAHRILTPRPTVMVTTVDEEGNINAAPFSFTMPVSIDPPVVAFASAPDHHTARNIESTHEFVINITPADIIERMWVTARDIPAGENELEAAGLAWTSSRRVKPPRIVEAPGHLECELLRMFEVGDHNLITGSVVSASVRSGAVKEGLLDVESVKPVLHVGGNKFVVGD and give its measured soluble on expression in E. coli.
**A:** not soluble
